target: T1, human MSLN-FL-his protein (human, UniProt Q13421 296-580); test: ELISA, coated antigen; antibody 10 nM
T1 construct: also called human MSLN full-length protein; hMSLN-FL-his; not shown: His tag
T1 sequence (Q13421 other isoform, or with tags, fused parts or gaps): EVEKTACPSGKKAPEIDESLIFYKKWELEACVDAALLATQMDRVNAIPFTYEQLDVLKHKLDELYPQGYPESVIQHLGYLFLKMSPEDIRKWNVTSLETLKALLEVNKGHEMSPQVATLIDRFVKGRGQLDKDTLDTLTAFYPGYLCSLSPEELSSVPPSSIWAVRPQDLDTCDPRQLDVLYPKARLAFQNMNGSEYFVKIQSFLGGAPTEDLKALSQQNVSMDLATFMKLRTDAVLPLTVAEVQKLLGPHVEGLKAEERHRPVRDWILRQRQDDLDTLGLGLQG
property-measured: OD450 (OD450)
Give the value, in units of OD450, as a plain number.

1) S009-F4-94.15 (antibody, human IgG1, kappa, V domains shown, Human-murine chimeric antibody, human IgG1/kappa constant regions) VH: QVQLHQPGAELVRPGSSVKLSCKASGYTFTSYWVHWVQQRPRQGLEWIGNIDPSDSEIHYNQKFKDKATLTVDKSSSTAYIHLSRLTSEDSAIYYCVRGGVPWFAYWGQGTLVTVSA VL: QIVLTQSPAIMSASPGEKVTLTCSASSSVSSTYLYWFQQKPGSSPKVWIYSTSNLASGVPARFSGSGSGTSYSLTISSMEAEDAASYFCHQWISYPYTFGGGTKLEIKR	1.84
2) S009-F6-62.5 (antibody, human IgG1, kappa, V domains shown, Human-murine chimeric antibody, human IgG1/kappa constant regions) VH: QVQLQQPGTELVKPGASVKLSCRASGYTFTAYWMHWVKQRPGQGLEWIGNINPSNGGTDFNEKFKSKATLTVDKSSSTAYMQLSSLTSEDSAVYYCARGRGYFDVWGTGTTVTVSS VL: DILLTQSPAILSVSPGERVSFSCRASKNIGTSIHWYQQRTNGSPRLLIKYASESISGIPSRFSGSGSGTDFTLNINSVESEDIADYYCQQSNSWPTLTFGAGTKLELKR	3.11
3) S009-F5-9.16 (antibody, human IgG1, kappa, V domains shown, Human-murine chimeric antibody, human IgG1/kappa constant regions) VH: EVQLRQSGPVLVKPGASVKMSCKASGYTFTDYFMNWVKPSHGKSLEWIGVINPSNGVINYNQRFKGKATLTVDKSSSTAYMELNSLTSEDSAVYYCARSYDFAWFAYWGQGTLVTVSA VL: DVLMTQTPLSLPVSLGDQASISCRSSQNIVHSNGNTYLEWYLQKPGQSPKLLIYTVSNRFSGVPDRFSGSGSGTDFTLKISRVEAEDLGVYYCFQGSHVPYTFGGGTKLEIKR	0.19

[ask] Entry S009-F4-127.10 (antibody, human IgG1, kappa, V domains shown, Human-murine chimeric antibody, human IgG1/kappa constant regions) VH: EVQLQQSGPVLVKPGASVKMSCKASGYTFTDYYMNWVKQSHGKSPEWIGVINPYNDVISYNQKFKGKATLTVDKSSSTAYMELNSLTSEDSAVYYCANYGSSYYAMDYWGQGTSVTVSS VL: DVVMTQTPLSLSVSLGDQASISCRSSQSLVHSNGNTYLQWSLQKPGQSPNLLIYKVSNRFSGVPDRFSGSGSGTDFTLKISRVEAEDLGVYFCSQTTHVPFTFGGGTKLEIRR has what OD450?
[reply] 0.09
